# system.under.test: T1, hIL2Rβ (hCD122) (human, UniProt P14784 27-239, limits assumed)
# T1 construct: bought recombinant protein; also called hCD122 (Acro)
# T1 sequence (looked up): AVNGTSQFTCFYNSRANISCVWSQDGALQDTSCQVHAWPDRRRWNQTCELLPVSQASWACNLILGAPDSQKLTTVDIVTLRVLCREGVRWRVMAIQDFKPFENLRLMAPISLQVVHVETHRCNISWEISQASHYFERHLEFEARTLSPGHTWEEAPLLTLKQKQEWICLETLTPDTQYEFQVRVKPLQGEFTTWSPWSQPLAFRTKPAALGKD
# measurement.protocol: ELISA (method of section 2.1.1): sample captured on coated goat anti-human IgG, hCD122 titrated; the x axis is the CD122 concentration
reported.endpoint: binding result

binder	observed
IC-Cy08-DE (other, IC-Cy08 with light chain D1E; also called H6K3(H)-Cy-08-DE) heavy: APTSSSTKKTQLQLEHLLLDLQMILNGINNYKNPKLTRMLTFKFYMPKKATELKHLQCLEEELGCLEEVLNLAQSKNFHLRPRDLISNIRVIVLELKGSETTFMCEYADETATIVEFLNRWITFCQSIISTLTGGGGSGGGGSGGGGSGGGGSQVQLVQSGAEVKKPGATVKISCKVSGDTITAYYMHWVRQAPGQGLEWIGRIDPEDDSTKYAENFKGRVTITADTSTDTAYMELSSLRSEDTAVYYCTTVTCYYSRELRWFAYWGQGTLVTVSS VL: EIVLTQSPATLSLSPGERATLSCQASQDIGNYLSWYQQKPGQAPRLLIYSATSLASGIPARFSGSRSGTDFTLTISSLEPEDFAVYYCLQHYSTPYTFGQGTKLEIK	binds
IC-Cy08-QG (other, IC-Cy08 with light chain Q27G; also called H6K3(H)-Cy-08-QG) heavy: APTSSSTKKTQLQLEHLLLDLQMILNGINNYKNPKLTRMLTFKFYMPKKATELKHLQCLEEELGCLEEVLNLAQSKNFHLRPRDLISNIRVIVLELKGSETTFMCEYADETATIVEFLNRWITFCQSIISTLTGGGGSGGGGSGGGGSGGGGSQVQLVQSGAEVKKPGATVKISCKVSGDTITAYYMHWVRQAPGQGLEWIGRIDPEDDSTKYAENFKGRVTITADTSTDTAYMELSSLRSEDTAVYYCTTVTCYYSRELRWFAYWGQGTLVTVSS VL: DIVLTQSPATLSLSPGERATLSCQASGDIGNYLSWYQQKPGQAPRLLIYSATSLASGIPARFSGSRSGTDFTLTISSLEPEDFAVYYCLQHYSTPYTFGQGTKLEIK	binds

The reported numbers originate from patent US20250346644A1.
